The measured values listed here are drawn from ChEMBL document CHEMBL1138326.

- TARGET_DESC: Prostaglandin G/H synthase 1 (Homo sapiens)
- Sequence (P23219 whole entry): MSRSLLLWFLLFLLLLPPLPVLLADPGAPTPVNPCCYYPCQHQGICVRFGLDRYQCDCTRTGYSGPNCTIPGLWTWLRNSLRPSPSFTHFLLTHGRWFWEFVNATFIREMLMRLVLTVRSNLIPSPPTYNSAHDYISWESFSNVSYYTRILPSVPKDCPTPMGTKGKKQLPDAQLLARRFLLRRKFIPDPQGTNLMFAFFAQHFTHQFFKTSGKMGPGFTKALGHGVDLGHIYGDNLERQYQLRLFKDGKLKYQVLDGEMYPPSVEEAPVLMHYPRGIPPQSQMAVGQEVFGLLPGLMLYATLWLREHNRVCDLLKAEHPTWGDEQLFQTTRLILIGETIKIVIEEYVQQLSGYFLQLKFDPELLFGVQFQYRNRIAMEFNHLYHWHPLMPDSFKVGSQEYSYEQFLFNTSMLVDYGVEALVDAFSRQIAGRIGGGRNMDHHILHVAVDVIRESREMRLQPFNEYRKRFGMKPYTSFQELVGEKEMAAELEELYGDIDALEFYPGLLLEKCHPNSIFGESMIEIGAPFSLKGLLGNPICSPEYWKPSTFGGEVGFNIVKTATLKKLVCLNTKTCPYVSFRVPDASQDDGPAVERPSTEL
- EXPERIMENTAL_DETAILS: Inhibition of COX1 in human whole blood assessed as effect on A23187-induced thromboxane B2 production at 30 uM relative to control; values are per cent of control
EXPERIMENTAL_READOUT: residual activity (%)

Reference set, count: 6
>  <SMILES_REPRESENTATION>
COc1ccc2c(c1)c(CCNS(=O)(=O)CCCO[N+](=O)[O-])c(C)n2C(=O)c1ccc(Cl)cc1

>  <UNIT_TAG>
%

>  <residual activity>
20

$$$$
>  <SMILES_REPRESENTATION>
Cc1c(CC(=O)NCCCO)c2cc(O)ccc2n1C(=O)c1ccc(Cl)cc1

>  <UNIT_TAG>
%

>  <residual activity>
7

$$$$
>  <SMILES_REPRESENTATION>
COc1ccc2c(c1)c(CC(=O)NCC(C)(C)CO[N+](=O)[O-])c(C)n2C(=O)c1ccc(Cl)cc1

>  <UNIT_TAG>
%

>  <residual activity>
3

$$$$
>  <SMILES_REPRESENTATION>
COc1ccc2c(c1)c(CC(=O)NCCCO)c(C)n2C(=O)c1ccc(Cl)cc1

>  <UNIT_TAG>
%

>  <residual activity>
11

$$$$
>  <SMILES_REPRESENTATION>
COc1cc2c(CC(=O)O)c(C)n(C(=O)c3ccc(Cl)cc3)c2cc1Cl

>  <UNIT_TAG>
%

>  <residual activity>
2

$$$$
>  <SMILES_REPRESENTATION>
COc1ccc2c(c1)c(CCNS(=O)(=O)CCCO)c(C)n2C(=O)c1ccc(Cl)cc1

>  <UNIT_TAG>
%

>  <residual activity>
23

$$$$

1 = COc1cc2c(CC(=O)NCCCO[N+](=O)[O-])c(C)n(C(=O)c3ccc(Cl)cc3)c2cc1Cl
2 = Cc1c(CC(=O)NCCCO[N+](=O)[O-])c2cc(O)ccc2n1C(=O)c1ccc(Cl)cc1
Given the listed records, identify the one among 1 and 2 with higher residual activity. To answer, give the label that identifies your chosen option.
1
(1: 41%, 2: 1%)
